Origin of the recorded values: PubChem BioAssay AID651833

biological target: Kelch-like ECH-associated protein 1 (Homo sapiens) + Nuclear factor erythroid 2-related factor 2 (Homo sapiens) (UniProt Q14145+Q16236); assay: Nrf2 nuclear translocation activators in cells, dose response, orthogonal assay for Keap1-Nrf2 interaction inhibitor project, PathHunter, U2OS cells, dry powder (AID 651833); details: beta-gal luminescence, 3 h, at 38 µM (top of the series)
Sequence (Q14145 whole entry, looked up): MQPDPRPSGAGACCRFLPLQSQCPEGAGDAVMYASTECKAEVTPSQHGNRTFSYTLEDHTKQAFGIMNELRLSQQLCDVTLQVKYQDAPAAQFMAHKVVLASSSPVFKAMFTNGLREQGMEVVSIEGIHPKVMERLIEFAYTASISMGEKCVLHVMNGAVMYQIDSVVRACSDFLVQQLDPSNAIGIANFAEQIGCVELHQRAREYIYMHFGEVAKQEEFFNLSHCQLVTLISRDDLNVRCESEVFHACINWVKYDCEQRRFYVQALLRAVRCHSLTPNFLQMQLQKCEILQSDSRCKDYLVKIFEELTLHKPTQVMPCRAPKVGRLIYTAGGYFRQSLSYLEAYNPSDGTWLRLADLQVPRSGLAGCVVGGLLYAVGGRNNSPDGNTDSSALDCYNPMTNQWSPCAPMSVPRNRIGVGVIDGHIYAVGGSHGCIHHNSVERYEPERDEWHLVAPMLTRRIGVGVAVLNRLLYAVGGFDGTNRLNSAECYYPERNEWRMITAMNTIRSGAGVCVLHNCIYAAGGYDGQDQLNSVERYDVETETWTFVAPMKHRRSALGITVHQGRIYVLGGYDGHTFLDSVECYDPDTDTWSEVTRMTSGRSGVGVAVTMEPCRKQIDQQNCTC
Sequence (Q16236 whole entry, looked up): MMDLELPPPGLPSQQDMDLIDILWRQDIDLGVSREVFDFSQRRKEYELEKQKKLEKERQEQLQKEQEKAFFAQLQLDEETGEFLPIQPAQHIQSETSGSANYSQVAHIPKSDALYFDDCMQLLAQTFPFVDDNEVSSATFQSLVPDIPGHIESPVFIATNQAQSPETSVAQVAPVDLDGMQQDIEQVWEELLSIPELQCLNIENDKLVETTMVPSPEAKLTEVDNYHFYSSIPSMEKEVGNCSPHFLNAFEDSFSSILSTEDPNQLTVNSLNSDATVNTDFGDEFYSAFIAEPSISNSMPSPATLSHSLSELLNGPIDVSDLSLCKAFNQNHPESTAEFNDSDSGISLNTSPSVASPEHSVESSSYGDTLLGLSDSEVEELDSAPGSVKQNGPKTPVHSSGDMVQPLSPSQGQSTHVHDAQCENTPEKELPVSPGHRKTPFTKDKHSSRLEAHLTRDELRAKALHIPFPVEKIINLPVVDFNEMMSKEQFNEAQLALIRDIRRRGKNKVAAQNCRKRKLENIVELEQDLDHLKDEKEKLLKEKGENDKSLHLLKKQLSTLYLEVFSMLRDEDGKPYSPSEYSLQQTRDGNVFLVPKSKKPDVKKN
result type: activation (%)
Write the answer as a number in %, unit excluded.

Returns the measured activation for the input compound. Input: `CCOC(=O)C(C(=O)OCC)c1cc(CNS(=O)(=O)c2ccc(C)cc2C)c2ccccc2n1`
1.4

Also, `O=S(=O)(Nc1nc(NCC2CCCCC2)nc2ccccc12)c1ccccc1` please.
3.97

Further, for O=C(NCCc1ccccc1)c1ccccc1C(=O)NC[C@@H]1c2ccccc2CCN1C(=O)C1CCCCC1C(=O)O (stereo partly drawn) ?
5.09

Would you mind doing O=C(O)C1CCCCC1C(=O)Nc1ccccc1CN1C(=O)c2ccccc2C1=O (stereo not drawn) as well?
-2.72

Entry to check: `Cc1ccc(S(=O)(=O)NC[C@@H]2c3ccccc3CCN2C(=O)[C@@H]2CCCC[C@@H]2C(=O)O)c(C)c1`
4.66

Try this compound next: `O=C1c2ccccc2C(=O)N1C[C@@H]1c2ccccc2CCN1C(=O)C1CCCCC1`
0.733

Further, for `COC(=O)[C@@H]1CCCC[C@@H]1C(=O)N1CCc2ccccc2[C@@H]1CN1C(=O)c2ccccc2C1=O` ?
-2.15

`CCOC(=O)C(C(=O)OCC)c1cc(CN2C(=O)c3ccccc3C2=O)c2ccccc2n1` ?
9.41

Try this compound too: O=C(O)C1CCCCC1C(=O)N1CCc2ccccc2C1CN1C(=O)Cc2ccccc2C1=O (stereo not drawn)
8.47

Can you check `CC(C)CNc1nc(NS(=O)(=O)c2ccccc2)c2ccccc2n1` next?
7.06

Queued: O=C(O)[C@H]1CCCC[C@H]1C(=O)NC(CN1C(=O)c2ccccc2C1=O)c1ccccc1 (stereo partly drawn)
-1.98

Cool, now `CCOC(=O)C(C(=O)OCC)c1nc(NS(=O)(=O)c2c(C)cc(C)cc2C)c2ccccc2n1`
1.28

Next: O=C(O)C1CCCCC1C(=O)N1CCCCC1CN1C(=O)c2ccccc2C1=O (stereo not drawn)
-1.78

Can you check O=C(NCCCN1CCOCC1)c1ccccc1C(=O)NC[C@@H]1c2ccccc2CCN1C(=O)C1CCCCC1C(=O)O (stereo partly drawn) next?
4.62

Please do the same for `Cc1cc(C)c(S(=O)(=O)Nc2cc(C(C(=O)OCc3ccccc3)C(=O)OCc3ccccc3)c(O)c3ccccc23)c(C)c1` as well.
5.34

Ok, now `O=C(O)[C@H]1CCCC[C@H]1C(=O)N1CCc2ccccc2[C@H]1CNS(=O)(=O)c1ccccc1`
7.86

Then what about the compound `O=C(O)[C@@H]1CCCN1C(=O)N1CCc2ccccc2[C@H]1CN1C(=O)c2ccccc2C1=O` ?
5.41

Follow-up entry: `O=C1c2ccccc2C(=O)N1C[C@@H]1c2ccccc2CCN1C(=O)OCc1ccccc1`
1.45
